What follows is a record of pIC50 for EGFR (human) (UniProt P00533).
pIC50: −log10 of the molar value.

INSERT INTO results (compound_string, target_system, endpoint_value) VALUES
  ('CN(C)c1ccc(CNC(=O)c2cccc(-c3cnc(N)c(C(=O)N[C@H]4CCCNC4)n3)c2)cc1', 'EGFR (human) (UniProt P00533)', '≤ 5.00'),
  ('Nc1ncc(-c2cccc(CNC(=O)Nc3ccc(-c4ccccc4)cc3)c2)nc1C(=O)N[C@H]1CCCNC1', 'EGFR (human) (UniProt P00533)', '≤ 5.00'),
  ('COc1ccc(CNC(=O)c2cccc(-c3cnc(N)c(C(=O)N[C@H]4CCCNC4)n3)c2)cc1', 'EGFR (human) (UniProt P00533)', '≤ 5.00');

Please look at the following compound next.
Look up pIC50: Nc1ncc(-c2cccc(NC(=O)Cc3ccc(F)cc3F)c2)nc1C(=O)N[C@H]1CCCNC1
6.00 to 7.30
